B1: P2RY14 (parent)
chain: KLLSVIVWMLMLLLAVPNIILTNQ

variants of: B1; experiment: protein stability index of a GFP-peptide fusion (GPS, HEK-293T) (PSI 1-6); higher = more stable; settings: c terminus: a fixed tail appended;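 also: lentivirally expressed fusions sorted by FACS into six bins by GFP to DsRed ratio, PSI derived from sequencing read proportions per bin multiplied by bin number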
metric: protein stability index
Write the value as a bare number.

Solved entries:
L13P	3.47
M9N	2.1
L3S	2.35
P17F	2.69

// sample "L21H" , its protein stability index was 2.2

// sample "L14K" , its protein stability index was 2.95

// sample "T22H" , its protein stability index was 2.69
